System: LXRa:RXRa (NR concentration 270 nM, RXRa partner concentration 90 nM)
Assay: PBM binding z-score (relative to random genomic background probes); higher = stronger binding; sequences stand for … in GC…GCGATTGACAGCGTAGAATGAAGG
Measured PBM binding z-score of individual entries
Measured property: PBM binding z-score

1) CCAGACAGGGGAAAGGTAACTCAGTCTGGTACGC : -0.233
2) TGTCAAAGTTCAAAGTTAACGTAAGTATCCACAC : 6.38
3) ACAGCCAGGTGATGAAGGTAACTCAGGCTATCAT : -0.496
4) CGTCAAAGTTCAACTAAGATAACGTAAAGCACGC : 6.3
5) CCTGCTAGGTCATGGTCAACTAATCTACAGTATG : 2.85
6) TTACCAAGGTGAAAGGTCGTTGATGCACGCCTTG : 3.43
7) CTCGAAAGGTCGTGCTCAGGTGAGTCTACCAAAC : 3.85
8) TCTATTAGTAGAAGGGCAACCGACGAGTCCGTTT : 0.212
9) GTAACGAGGGCAAAGTTGATAGCATCTGTCGACG : 1.29
10) GCTACAGGGTCAAGGCCAGAGTACGCGTATTGAT : 3.95
11) CCTTACGGGTCACTGACAGGTTGTAGCATTTGGA : 3.61
12) TAGCCTAGGTCATTGGTCCAGTATAGTACGCATC : 3.31
